Origin of the recorded values: paper PMC11252000

TARGET_OR_TEST_SYSTEM: MFSD1 (MFSD1WT, mmMFSD1, MFSD1-strep) (Mus musculus, UniProt Q9DC37)
Construct: full length; N-terminal Twin-Strep-tag + HRV 3C site; Expi293F; purified in DDM/CHS; liposomes POPE:POPG:CHS for transport
Sequence (Q9DC37 1-464): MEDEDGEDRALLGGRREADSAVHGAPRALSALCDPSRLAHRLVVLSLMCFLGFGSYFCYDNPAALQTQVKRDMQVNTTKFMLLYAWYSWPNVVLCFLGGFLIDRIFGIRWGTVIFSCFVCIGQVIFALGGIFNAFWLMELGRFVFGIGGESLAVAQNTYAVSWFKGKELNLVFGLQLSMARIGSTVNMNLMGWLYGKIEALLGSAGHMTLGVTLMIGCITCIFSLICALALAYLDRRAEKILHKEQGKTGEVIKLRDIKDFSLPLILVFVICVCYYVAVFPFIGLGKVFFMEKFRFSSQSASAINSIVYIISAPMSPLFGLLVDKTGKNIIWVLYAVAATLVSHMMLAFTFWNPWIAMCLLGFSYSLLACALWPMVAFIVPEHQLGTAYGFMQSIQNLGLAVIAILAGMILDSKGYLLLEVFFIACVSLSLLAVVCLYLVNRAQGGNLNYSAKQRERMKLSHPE
TEST_SUMMARY: nanoDSF thermal shift titration
Where a SMILES comes first, the peptide text is derived from it.
PROPERTY: Kd (µM)

{"COMPOUND": "CC(C)[C@H](NC(=O)[C@@H](N)CCCCN)C(=O)O [Lys–Val] (H-Lys-Val-OH)", "READOUT_VALUE": 4300}

[P] CC(C)C[C@H](N)C(=O)N[C@@H](C)C(=O)O [Leu–Ala] (H-Leu-Ala-OH)
[Q] C[C@H](NC(=O)[C@@H](N)Cc1c[nH]cn1)C(=O)O [His–Ala] (H-His-Ala-OH)
[R] N=C(N)NCCC[C@H](NC(=O)[C@@H]1CCCN1)C(=O)O [Pro–Arg] (H-Pro-Arg-OH)
[S] NCCCC[C@H](NC(=O)[C@@H](N)Cc1c[nH]cn1)C(=O)O [His–Lys] (H-His-Lys-OH)
Would you mind ranking these compounds by ascending Kd? List each label, following the requested order.
R, S, P, Q
(R: 318 µM, S: 765 µM, P: 2200 µM, Q: 6700 µM)
